- Tgt: T1, hIL-18Rα ECD-Fc fusion protein (human, UniProt Q13478 22-329)
- T1 construct: extracellular domain; captured on Protein A sensor
- T1 sequence (looked up): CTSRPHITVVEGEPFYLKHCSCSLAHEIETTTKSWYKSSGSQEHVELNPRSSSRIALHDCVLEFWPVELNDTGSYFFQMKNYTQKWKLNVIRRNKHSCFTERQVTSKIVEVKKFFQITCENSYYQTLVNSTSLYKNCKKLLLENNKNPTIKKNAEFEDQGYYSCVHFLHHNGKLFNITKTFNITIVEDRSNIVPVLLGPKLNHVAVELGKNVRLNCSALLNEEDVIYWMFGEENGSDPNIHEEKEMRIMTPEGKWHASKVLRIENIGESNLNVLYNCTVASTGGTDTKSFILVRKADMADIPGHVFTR
- Assay Summary: BLI (Octet RED96), hIL-18Rα ECD-Fc on Protein A sensor; further: test concentration or dose not given here

- Binder: "IL-18 variant polypeptide M28 (ligand) YFPKLASKLSVIRNLNDQVLFIDQGNRPLFEDMTDSDCRDNAPRTIFIISMYKWSGGRGMAVTISVKCEKISTLSCENKIISFKEMNPPDVIKDTKSDIIFFQYSVPGHDNKMQFESSSYEGYFLACEKERDLFKLILKKEDELGDRSIMFTVQNED"
  Unit Info: "nm"
  Response (nm): 0.178
- Binder: "IL-18 variant polypeptide M38 (ligand) YFPKLSSKLSVIRNLNDQVLFIDQGNRPLFEDMTDSDCRDNAPRTIFIISMYKWSGARGMAVTISVKCEKISTLSCENKIISFKEMNPPDVIKDTKSDIIFFQISVPGHDNKMQFESSSYEGYFLACEKERDLFKLILKKEDELGDRSIMFTVQNED"
  Unit Info: "nm"
  Response (nm): 0.0307
- Binder: "IL-18 variant polypeptide M30 (ligand) YFPKLLSKLSVIRNLNDQVLFIDQGNRPLFEDMTDSDCRDNAPRTIFIISMYKHSTVRGMAVTISVKCEKISTLSCENKIISFKEMNPPDSIKDTKSDIIFFQRSVPGHDNKMQFESSSYEGYFLACEKERDLFKLILKKEDELGDRSIMFTVQNED"
  Unit Info: "nm"
  Response (nm): 0.0275
